Target: T1, human VEGF (hVEGF) (human, UniProt P15692 181-395);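 note: fab variants flowed over hVEGF immobilized on a CM5 chip, rate constants from a one-to-one Langmuir fit, Kd taken as koff over kon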
T1 construct: also called VEGF-A
T1 sequence: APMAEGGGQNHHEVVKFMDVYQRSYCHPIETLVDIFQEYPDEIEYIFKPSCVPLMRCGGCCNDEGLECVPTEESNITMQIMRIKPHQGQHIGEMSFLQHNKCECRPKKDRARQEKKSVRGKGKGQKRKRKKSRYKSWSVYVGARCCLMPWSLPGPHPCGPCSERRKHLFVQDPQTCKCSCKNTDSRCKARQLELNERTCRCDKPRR
Experiment: SPR
Listing of recorded koff by entry.
Expressed in s⁻¹, but write only the number.

INSERT INTO results (binder, endpoint_unit, measured_value) VALUES
  ('HCLC2 (Fab, V domains shown, Fab) VH: EEQLVEEGGGLVQPGESLELSCAASGFEISDYWIHWVRQEPGEGLEWVAGITPAGGYEYYADSVEGRFTISADTSENTAYLQMNELRAEDTAVYYCARFVFFLPYAMDYWGQGELVTVSS VL: DIQMTQSPSSLSASVGDEVTITCRASQDVSTAVAWYQQKPGEAPKLLIYSASFLYSGVPSRFSGSGSGTDFTLTIESLQPEDAATYYCQQGYGAPFTFGQGTKVEIK', 's⁻¹', 0.000623),
  ('G6.31 LC-N94A (Fab, V domains shown, Fab) VH: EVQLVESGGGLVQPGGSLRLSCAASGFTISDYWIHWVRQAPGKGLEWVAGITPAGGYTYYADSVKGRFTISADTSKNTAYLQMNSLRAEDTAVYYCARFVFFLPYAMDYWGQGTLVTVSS VL: DIQMTQSPSSLSASVGDRVTITCRASQDVSTAVAWYQQKPGKAPKLLIYSASFLYSGVPSRFSGSGSGTDFTLTISSLQPEDFATYYCQQGYGAPFTFGQGTKVEIK', 's⁻¹', 0.00169),
  ('R19HCLC5 (Fab, V domains shown, Fab) VH: EEQLVEEGGGLVQPGESLRLSCAASGFEISDYWIHWVRQEPGEGLEWVAGITPAGGYEYYADSVEGRFTISADTSENTAYLQMNELRAEDTAVYYCARFVFFLPYAMDYWGQGELVTVSS VL: DIQMTQSPSSLSASVGDRVTITCRASQDVSTAVAWYQQKPGKAPKLLIYSASFLYSGVPSRFSGSGSGTDFTLTISSLQPEDAATYYCQQGYGAPFTFGQGTKVEIK', 's⁻¹', '4.41e-05');

For R19HCLC2 (Fab, V domains shown, Fab) VH: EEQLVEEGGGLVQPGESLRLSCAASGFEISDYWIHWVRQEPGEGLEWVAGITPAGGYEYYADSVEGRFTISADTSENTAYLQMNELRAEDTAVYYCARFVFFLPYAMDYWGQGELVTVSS VL: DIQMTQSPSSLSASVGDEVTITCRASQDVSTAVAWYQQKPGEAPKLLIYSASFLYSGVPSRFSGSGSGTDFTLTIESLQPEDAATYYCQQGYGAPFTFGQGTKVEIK , write its koff. 4.67e-05

For HCLC4 (Fab, V domains shown, Fab) VH: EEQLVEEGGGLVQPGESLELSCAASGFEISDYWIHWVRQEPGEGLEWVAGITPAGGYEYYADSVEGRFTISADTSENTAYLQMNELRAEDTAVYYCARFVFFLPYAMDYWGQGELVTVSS VL: DIQMTQSPSSLSASVGDEVTITCRASQDVSTAVAWYQQKPGKAPKLLIYSASFLYSGVPSRFSGSGSGTDFTLTISSLQPEDAATYYCQQGYGAPFTFGQGTKVEIK , write its koff. 0.000608

Measured values drawn from patent US20210115124A1 for this set.
